- experimentalProtocol: Cytotoxicity against mouse P815B cells expressing mouse recombinant TDO by MTT assay
- Type: cell-based
- details: mouse, P815B cells expressing mouse recombinant TDO; read-out: LD50 (the source's name)
parameter: CC50

Recorded CC50, per entry:
CC(C)/N=C1/C=C(C2=C/C(=N\C(C)C)c3ccccc3C2=O)C(=O)c2ccccc21 100 µM
Cn1cc(C[C@H](N)C(=O)O)c2ccccc21 > 400 µM

Now for the compound whose CC50 we want.
Exercise: Field request: CC50 | item: "c1ccc(-c2cnn[nH]2)cc1"
Key: > 400 µM

---

- measuredTarget: Tryptophan 2,3-dioxygenase (Mus musculus)
- Sequence (P48776 whole entry): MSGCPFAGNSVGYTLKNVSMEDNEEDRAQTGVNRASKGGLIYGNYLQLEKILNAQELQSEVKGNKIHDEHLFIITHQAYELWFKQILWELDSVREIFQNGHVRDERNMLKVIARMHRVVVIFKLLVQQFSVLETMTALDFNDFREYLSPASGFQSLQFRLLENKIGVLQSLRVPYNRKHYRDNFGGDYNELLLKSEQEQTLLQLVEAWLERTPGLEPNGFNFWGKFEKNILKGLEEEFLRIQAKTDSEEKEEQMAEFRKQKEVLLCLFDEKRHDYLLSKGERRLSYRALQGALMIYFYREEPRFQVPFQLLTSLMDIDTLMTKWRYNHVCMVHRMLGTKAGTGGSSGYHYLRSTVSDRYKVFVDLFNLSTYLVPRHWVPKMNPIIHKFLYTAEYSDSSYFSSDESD
- experimentalProtocol: Inhibition of mouse recombinant TDO expressed in mouse P815B cells assessed as blockade of tryptophan degradation by HPLC
pIC50: −log10 of the molar value.
parameter: pIC50

compound	pIC50
Nc1ccc(O)c2ncccc12	5.30

Batch request: pIC50 per item, same order as input.
1. Cn1cc(C[C@H](N)C(=O)O)c2ccccc21 [(L)-1-METHYLTRYPTOPHAN]
2. c1ccc(-c2cnn[nH]2)cc1
3. SC1Nc2ccccc2S1 (stereo unspecified)
4. CCNc1ccc(O)c2ccccc12
5. CC1=C/C(=N\C(C)C)c2ccccc2C1=O
6. Sc1nc(-c2ccccc2)cs1
7. Oc1ccc(O)c2ccccc12

Key:
["< 3.40", "< 3.40", "< 4.10", "< 4.30", 5.20, "< 4.10", "< 5.00"]

Quick request: pIC50 for each listed item, please.
1. CCC(CC)/N=C1/C=C(C2=C/C(=N\C(CC)CC)c3ccccc3C2=O)C(=O)c2ccccc21
2. CC(C)/N=C1/C=C(C2=C/C(=N\C(C)C)c3ccccc3C2=O)C(=O)c2ccccc21
3. CC(C)Nc1ccc(O)c2ccccc12

Key:
["< 4.30", "< 4.30", "< 4.82"]
